Would you mind telling me the reported MIC of each entry?
# System: Staphylococcus epidermidis
# ASSAY_REMARKS: Antimicrobial activity against Staphylococcus epidermidis ATCC 29886 after 16 hrs by broth microdilution method
# Assay type: functional
# CONDITIONS: ATCC 29886, 16 h
# output: bare number, implied unit µg/mL

INPUT: Quick check: MIC of `Cl.Nc1ncc(-c2ccccc2)n1CCCc1ccccc1` ?
OUTPUT: 8

INPUT: Let us now turn to `CCCCCCc1cnc(N)n1CCCCC.Cl`
OUTPUT: 8

INPUT: Try the molecule `CCCCCn1c(CC(C)C)cnc1N.Cl`
OUTPUT: 32

INPUT: And for `CCCCCCc1cnc(N)n1CCCc1ccccc1.Cl` ?
OUTPUT: 4

INPUT: What about `Cl.Nc1ncc(-c2ccccc2)n1Cc1ccccc1` ?
OUTPUT: 2

INPUT: Now this one: `CC(C)Cc1cnc(N)n1CCCc1ccccc1.Cl`
OUTPUT: 4

INPUT: # iterate: `CCCCCn1c(CCCCNC(=O)OCc2ccccc2)cnc1N.Cl`
OUTPUT: 16

INPUT: Quick one: `CCCCCCc1cnc(N)n1Cc1ccccc1.Cl`
OUTPUT: 16

INPUT: Can you handle `Cl.Nc1ncc(Cc2ccccc2)n1Cc1ccccc1` next?
OUTPUT: 128

INPUT: Also check `CCCCCCCCCCCCn1c(CCCCCC)cnc1N.Cl`
OUTPUT: 0.5

INPUT: Entry `CCCCCCCCn1c(-c2ccccc2)cnc1N.Cl` please
OUTPUT: 16

INPUT: Proceed to `CC(C)Cc1cnc(N)n1Cc1ccccc1.Cl`
OUTPUT: 16

INPUT: Entry `Cl.Nc1ncc(CCCCNC(=O)OCc2ccccc2)n1CCCc1ccccc1` please
OUTPUT: 16

INPUT: Check `Cl.Nc1ncc(CCCCNC(=O)OCc2ccccc2)n1Cc1ccccc1` too.
OUTPUT: 32

INPUT: Another molecule to check: `CCCCCCCCn1c(CC(C)C)cnc1N.Cl`
OUTPUT: 2

###

# Test system: Klebsiella pneumoniae
# ASSAY_REMARKS: Antimicrobial activity against carbapenem-resistant Klebsiella pneumoniae BAA-2146 expressing […] gene after 16 hrs by broth microdilution method
# Type: functional
# CONDITIONS: BAA-2146, 16 h
For each entry below, report its MIC value.
Just the number please, in µg/mL, no unit attached.

INPUT: Look at this molecule and give its reported MIC. `CC(C)Cc1cnc(N)n1Cc1ccccc1.Cl`
OUTPUT: 128

INPUT: Repeat with `CCCCCn1c(Cc2ccccc2)cnc1N.Cl`
OUTPUT: 128

INPUT: What do we get for `CCCCCCCCCCn1c(CCCCCC)cnc1N.Cl` ?
OUTPUT: 32

INPUT: Field entry: `Cl.Nc1ncc(CCCCNC(=O)OCc2ccccc2)n1Cc1ccccc1`
OUTPUT: 128

INPUT: Proceed to `CCCCCCCCn1c(CCCCNC(=O)OCc2ccccc2)cnc1N.Cl`
OUTPUT: 128

INPUT: Again, but for `CCCCCCc1cnc(N)n1CCCCC.Cl`
OUTPUT: 64

###

# Tested on: Escherichia coli
# ASSAY_REMARKS: Antimicrobial activity against Escherichia coli ATCC 35695 after 16 hrs by broth microdilution method
# Type: functional
# CONDITIONS: ATCC 35695, 16 h
Just a reminder that ties go to false (0): only MIC strictly below 20 µg/mL counts as true (1).

INPUT: Determine whether this compound shows MIC lower than 20 µg/mL (ties excluded): `CCCCCn1c(Cc2ccccc2)cnc1N.Cl`
OUTPUT: false (0)

INPUT: Moving on to `Cl.Nc1ncc(CCCCNC(=O)OCc2ccccc2)n1CCCc1ccccc1`
OUTPUT: false (0)

INPUT: Now the same for `CCCCCCCCn1c(-c2ccccc2)cnc1N.Cl`
OUTPUT: false (0)

INPUT: Thanks! And `CCCCCCCCn1c(CCCCCC)cnc1N.Cl` ?
OUTPUT: true (1)

INPUT: How about this compound: `CCCCCCCCn1c(CCCCNC(=O)OCc2ccccc2)cnc1N.Cl`
OUTPUT: true (1)

INPUT: Same question for `CCCCCCCCn1c(CC(C)C)cnc1N.Cl` please.
OUTPUT: true (1)

INPUT: Queued: `CC(C)Cc1cnc(N)n1CCCc1ccccc1.Cl`
OUTPUT: true (1)

INPUT: What do you get for `Cl.Nc1ncc(Cc2ccccc2)n1Cc1ccccc1` ?
OUTPUT: false (0)

INPUT: Check `CCCCCCCCCCn1c(CCCCCC)cnc1N.Cl` too.
OUTPUT: true (1)
